Documented pIC50 across a set of compounds
Target: SOS1 (Homo sapiens (Human), UniProt Q07889)
Sequence (Q07889 564-1049): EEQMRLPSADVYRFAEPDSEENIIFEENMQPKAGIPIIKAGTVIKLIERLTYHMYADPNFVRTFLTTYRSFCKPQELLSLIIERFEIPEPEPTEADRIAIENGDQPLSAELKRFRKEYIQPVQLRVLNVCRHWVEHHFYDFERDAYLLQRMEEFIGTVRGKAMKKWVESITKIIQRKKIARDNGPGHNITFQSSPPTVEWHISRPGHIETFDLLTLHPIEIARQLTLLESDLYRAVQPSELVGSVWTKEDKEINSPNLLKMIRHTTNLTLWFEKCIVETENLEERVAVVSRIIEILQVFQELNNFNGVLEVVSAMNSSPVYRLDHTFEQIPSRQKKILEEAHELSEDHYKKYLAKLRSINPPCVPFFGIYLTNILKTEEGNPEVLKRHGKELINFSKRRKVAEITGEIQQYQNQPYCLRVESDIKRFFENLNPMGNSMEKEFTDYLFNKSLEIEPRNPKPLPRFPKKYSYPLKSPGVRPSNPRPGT
Assay: Ras-SOS interaction assay (HTRF)
Format: biochemical
Settings: K-RasG13D utilized, read-out: IC50 inhibition of SOS
pIC50: −log10 of the molar value.
Quantity measured: pIC50

compound="COc1nc2nc(C)nc(N[C@H](C)c3cccc(C(F)(F)F)c3F)c2cc1N1CCN(C)CC1 [Compound 349]" quantity_measured=pIC50 reported_measurement="> 7.00"
compound="C[C@@H](Nc1ncnc2nc(Cl)c(C3(C#N)CC3)cc12)c1cccc(C(F)(F)CO)c1F [Compound 362]" quantity_measured=pIC50 reported_measurement="> 7.00"
compound="COc1nc2nc(C)nc(N[C@H](C)c3cccc(C(F)F)c3F)c2cc1C1(C#N)CC1 [Compound 101]" quantity_measured=pIC50 reported_measurement="> 7.00"
compound="COc1nc2nc(C)nc(N[C@H](C)c3cccc(C(F)(F)F)c3F)c2cc1C1CCN(C)CC1 [Compound 309]" quantity_measured=pIC50 reported_measurement="> 7.00"
compound="COc1nc2ncnc(N[C@H](C)c3cccc(C(F)F)c3F)c2cc1C1(C(F)F)CC1 [Compound 185]" quantity_measured=pIC50 reported_measurement="6.00 to 7.00"
compound="COc1nc2nc(C)nc(N[C@H](C)c3cccc(C(F)(F)F)c3F)c2cc1C1(C#N)CCN(C(C)C)CC1 [Compound 306]" quantity_measured=pIC50 reported_measurement="6.00 to 7.00"
compound="CNc1nc2nc(C)nc(N[C@H](C)c3cccc(C(F)F)c3F)c2cc1C1CCS(=O)(=O)CC1 [Compound 136]" quantity_measured=pIC50 reported_measurement="> 7.00"
